Each entry below carries its recorded pIC50.
ASSAY: Agonist activity at human IP receptor in human platelets assessed as inhibition of ADP-induced platelet aggregation
pIC50: −log10 of the molar value.

COMPOUND: O=C(O)COc1cccc2c1CCC(Cn1ncc(-c3ccccc3F)c(-c3ccccc3)c1=O)C2 (stereo not given)
pIC50: 6.66

COMPOUND: O=C(O)COc1cccc2c1CCC(Cn1ncc(-c3ccccc3)c(-c3ccc(F)cc3)c1=O)C2 (stereo not given)
pIC50: 6.64

COMPOUND: O=C(O)COc1cccc2c1CCC(Cn1ncc(-c3cccc(F)c3)c(-c3ccccc3)c1=O)C2 (stereo not given)
pIC50: 6.72

COMPOUND: O=C(O)COc1cccc2c1CCC(Cn1ncc(-c3cccc(F)c3F)c(-c3ccc(F)cc3)c1=O)C2 (stereo not given)
pIC50: 7.21

COMPOUND: COc1ccc(-c2c(-c3ccccc3)cnn(CC3CCc4c(cccc4OCC(=O)O)C3)c2=O)cc1 (stereo not given)
pIC50: 6.48
